biological target: [35S]-TBPS binding in rat brain cortical membranes; test: Steroid inhibition of [35S]-TBPS binding, rat brain cortical membranes; settings: 3 nM [35S]-TBPS, in the presence of 5 μM GABA, read-out: 35S-TBPS Radioligand Displacement (IC50)
pIC50: −log10 of the molar value.
# pIC50 per record follows

{"columns": ["CHEMICAL STRUCTURE", "TEST SYSTEM", "pIC50"],
 "data": [
  ["COC[C@]12CC[C@@](C)(O)C[C@@H]1CC[C@H]1[C@@H]3CC[C@H](C(=O)Cn4nnc5ncc(Cl)cc54)[C@@]3(C)CC[C@@H]12", "[35S]-TBPS binding in rat brain cortical membranes", "7.30 to 8.00"],
  ["COC[C@]12CC[C@@](C)(O)C[C@@H]1CC[C@H]1[C@@H]3CC[C@H](C(=O)Cn4ncc5ccc(F)cc54)[C@@]3(C)CC[C@@H]12", "[35S]-TBPS binding in rat brain cortical membranes", "7.00 to 7.30"]
]}

Exercise: Need pIC50 of `COC[C@]12CC[C@@](C)(O)C[C@@H]1CC[C@H]1[C@@H]3CC[C@H](C(=O)Cn4nc5ccc(Cl)c(F)c5n4)[C@@]3(C)CC[C@@H]12` , thanks.
Key: 7.00 to 7.30

Exercise: Same lookup for `C[C@@]1(O)CC[C@@]2(CO)[C@@H](CC[C@H]3[C@@H]4CC[C@H](C(=O)Cn5ccnn5)[C@@]4(C)CC[C@@H]32)C1` , please.
Key: < 6.30

Exercise: Same lookup for `COC[C@]12CC[C@@](C)(O)C[C@H]1CC[C@H]1[C@@H]3CC[C@H](C(=O)Cn4nnc5cccc(F)c54)[C@@]3(C)CC[C@@H]12` , please.
Key: 7.30 to 8.00

Exercise: Same lookup for `COC[C@]12CC[C@](O)(C(F)(F)F)C[C@H]1CC[C@H]1[C@@H]3CC[C@H](C(=O)Cn4nc5ccc(F)c(F)c5n4)[C@@]3(C)CC[C@@H]12` , please.
Key: 6.30 to 7.00

Exercise: Same lookup for `COC[C@]12CC[C@@](C)(O)C[C@H]1CC[C@H]1[C@@H]3CC[C@H](C(=O)Cn4cnc5ccccc54)[C@@]3(C)CC[C@@H]12` , please.
Key: 7.30 to 8.00

Exercise: Same lookup for `COC[C@]12CC[C@@](C)(O)C[C@@H]1CC[C@H]1[C@@H]3CC[C@H](C(=O)Cn4nnc5ccc(OC(F)(F)F)cc54)[C@@]3(C)CC[C@@H]12` , please.
Key: 7.00 to 7.30

Exercise: Same lookup for `COC[C@]12CC[C@@](C)(O)C[C@@H]1CC[C@H]1[C@@H]3CC[C@H](C(=O)Cn4nnc5ccccc54)[C@@]3(C)CC[C@@H]12` , please.
Key: 7.30 to 8.00

Exercise: Same lookup for `COC[C@]12CC[C@@](C)(O)C[C@H]1CC[C@H]1[C@@H]3CC[C@H](C(=O)Cn4nc5ccc(F)cc5n4)[C@@]3(C)CC[C@@H]12` , please.
Key: > 8.00

Exercise: Same lookup for `COC[C@]12CC[C@@](C)(O)C[C@@H]1CC[C@H]1[C@@H]3CC[C@H](C(=O)Cn4cc5ccc(Cl)cc5n4)[C@@]3(C)CC[C@@H]12` , please.
Key: 6.30 to 7.00

The reported measurements were obtained from patent US12071453B2.
